These entries and their values trace back to ChEMBL document CHEMBL5604063.

# TARGET SYSTEM: Genome polyprotein (dengue virus type 2)
# Assay type: functional, Thailand/16681/1984
pIC50: −log10 of the molar value.
MEASURE NAME: pIC50

{"MOL": "COc1cc(Cc2c(-c3ccc(F)cc3)noc2C)nc(N2CCNCC2)n1", "MEAS VALUE": "< 4.00"}
{"MOL": "CCn1cc(-c2ccc3c(c2)CCNC3)nc(N2CC[C@@H](CO)C2)c1=O", "MEAS VALUE": "< 4.00"}
{"MOL": "O=C(Nc1cc(Cl)cc(C(=O)Nc2cccc(-c3nnn[nH]3)c2)c1)OCc1ccccc1", "MEAS VALUE": 4.87}
{"MOL": "CN1CC=C(c2cccc([C@@H](NC(=O)OCc3ccccc3)C(=O)Nc3cccc(CN)c3)c2)CC1", "MEAS VALUE": "< 4.00"}
{"MOL": "O=C1COc2c(cccc2C(=O)Nc2ccc3c(c2)CNC3)N1", "MEAS VALUE": "< 4.00"}
{"MOL": "C[C@H](NC(=O)c1cccc2c1CC(=O)N2)c1nnc2n1CCCC2", "MEAS VALUE": "< 4.00"}
{"MOL": "O=C(Nc1ccc2c(c1)CNC2)c1cc(F)cc(-c2ccncc2)c1", "MEAS VALUE": "< 4.00"}
{"MOL": "CC(C)c1ccc(Cl)cc1C(=O)Nc1ccc2c(c1)CNC2", "MEAS VALUE": "< 4.00"}
{"MOL": "O=C(Nc1cc(Cl)cc(C(=O)Nc2ccc(OC3CNC3)cc2)c1)OCc1ccccc1", "MEAS VALUE": 4.19}
{"MOL": "NCc1cccc(NC(=O)[C@@H](NC(=O)OCc2ccccc2)C2CCN(S(=O)(=O)Cc3cscn3)CC2)c1", "MEAS VALUE": "< 4.00"}
{"MOL": "CN(C)Cc1cc(CNC(=O)[C@@H](NC(=O)OCc2ccccc2)c2ccc(OCc3ccccc3)cc2)ccc1F", "MEAS VALUE": "< 4.00"}
{"MOL": "CCn1c(=O)c(N2CCC[C@H]2c2nncs2)nc2ccccc21", "MEAS VALUE": "< 4.00"}
{"MOL": "O=C1CC[C@H]2[C@H](CCN2C(=O)c2ccc3c(c2)CNC3)N1", "MEAS VALUE": "< 4.00"}
{"MOL": "Cc1cc(C(=O)Nc2cccc(CN)c2)cc(NCC(F)(F)F)n1", "MEAS VALUE": "< 4.00"}
{"MOL": "NCc1ccc(COc2ccc(-c3ccc(N)nc3)c3c2OB(O)CC3)cc1", "MEAS VALUE": "< 4.00"}
{"MOL": "O=C(NCC(F)F)[C@H](Nc1ccc2c(c1)CNC2)c1cccc2c1CCC2", "MEAS VALUE": "< 4.00"}
{"MOL": "CN(C)Cc1cccc(C(=O)Nc2cccc(CN)c2)c1", "MEAS VALUE": "< 4.00"}
{"MOL": "O=S1(=O)CCN(CC#Cc2ccc3sncc3c2)CC1", "MEAS VALUE": "< 4.00"}
{"MOL": "CNC(=O)[C@H](Nc1ccc2c(c1)C(=O)OC2)c1cc(Cl)cc2[nH]ncc12", "MEAS VALUE": "< 4.00"}
{"MOL": "O=C(Nc1ccc2c(c1)CNC2)c1ccc2c(c1)CCC2", "MEAS VALUE": "< 4.00"}
{"MOL": "Cn1cc(-c2ccc([C@@H](NC(=O)OCc3ccccc3)C(=O)Nc3cccc(CN)c3)cc2)ccc1=O", "MEAS VALUE": "< 4.00"}

====

# TARGET SYSTEM: UniProt:P29990
# Type: functional, Thailand/16681/1984

{"MOL": "CCn1c(=O)c(N2CC[C@@]23CCN(C)C3)nc2ccccc21", "IC50": "> 99.5 µM"}
{"MOL": "O=C(Nc1ccc2c(c1)CNC2)N1CCC[C@](O)(c2ccccc2)C1", "IC50": "> 99.5 µM"}
{"MOL": "Cn1nc(CNc2cc(-c3cccnc3)ccn2)cc1C1CC1", "IC50": "> 99.5 µM"}
{"MOL": "O=C(O)c1cc(Cl)ccc1S(=O)(=O)Nc1ccc(F)c(N2CCNC2=O)c1", "IC50": "> 99.5 µM"}
{"MOL": "CCn1ccnc(N2CC[C@@H](Cc3ccncc3)C2)c1=O", "IC50": "> 99.5 µM"}
{"MOL": "Cc1cc(C)cc(C(=O)N2CCC(NS(=O)(=O)c3ccc(Cl)cc3C(=O)O)CC2)c1", "IC50": "> 99.5 µM"}
{"MOL": "O=C(Nc1cc(-c2cccnc2)ccn1)c1cn2c(n1)CCC2", "IC50": "> 99.5 µM"}
{"MOL": "CN(C)C(=O)CCCc1nc2c(C(=O)Nc3ccc4c(c3)CNC4)cc(Cl)cc2[nH]1", "IC50": "> 99.5 µM"}
{"MOL": "Cc1cnn(-c2cccc(-c3cccc(C4(CN)CC4)c3)c2)c1", "IC50": "> 99.5 µM"}
{"MOL": "Cc1c(CN)c(C(=O)Nc2cc(-c3cccnc3)ccn2)nn1C", "IC50": "> 99.5 µM"}
{"MOL": "O=C(O)c1cc(Cl)ccc1S(=O)(=O)Nc1ccc(Oc2ccccc2Cl)cc1", "IC50": "16.8 µM"}
{"MOL": "O=C(Nc1ccc2c(c1)CNC2)c1cc(F)cc2[nH]cnc12", "IC50": "99 µM"}
{"MOL": "O=C(O)c1cc(Cl)ccc1NS(=O)(=O)c1ccc(Br)cc1", "IC50": "> 99.5 µM"}
{"MOL": "CN1CCN(C2CN(C(=O)c3cc(Br)cc(C=O)c3)C2)CC1", "IC50": "> 99.5 µM"}
{"MOL": "N#C[C@H](Nc1cncc(-c2nn[nH]n2)c1)c1cc(Cl)cc(NC(=O)OCc2ccccc2)c1", "IC50": "18.7 µM"}
{"MOL": "C=C[C@H]1NCc2cc(NC(=O)c3cc(F)cc4[nH]ncc34)ccc21", "IC50": "86.6 µM"}
{"MOL": "O=C(Nc1cc(Cl)cc(C(=O)Nc2nc3c(s2)CCNC3)c1)OCc1ccccc1", "IC50": "> 99.5 µM"}
{"MOL": "O=C(Nc1ccc2c(c1)CNC2)c1ccc(OCC(F)(F)F)nc1", "IC50": "> 99.5 µM"}
{"MOL": "COC(=O)c1cc(Cl)ccc1NS(=O)(=O)c1ccc(Cl)nc1", "IC50": "> 99.5 µM"}
{"MOL": "CCn1ccnc(N2CCC(c3c[nH]c4ccccc34)CC2)c1=O", "IC50": "> 99.5 µM"}
{"MOL": "CNC(=O)[C@H](Nc1cc(Cl)cc2[nH]ncc12)c1ccc2c(c1)CNC2", "IC50": "> 99.5 µM"}
{"MOL": "NCc1cc(CCc2cc(Cl)cc(NC(=O)OCc3ccccc3)c2)cc(C(=O)O)c1", "IC50": "> 99.5 µM"}

====

# TARGET SYSTEM: Genome polyprotein (dengue virus type 2, UniProt P29990)
# Sequence (P29990 1346-1475 limits assumed): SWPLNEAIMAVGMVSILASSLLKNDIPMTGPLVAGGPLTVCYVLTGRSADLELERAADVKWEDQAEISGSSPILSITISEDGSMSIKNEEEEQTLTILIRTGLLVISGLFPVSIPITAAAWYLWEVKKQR
# Sequence (P29990 1476-2093 limits assumed): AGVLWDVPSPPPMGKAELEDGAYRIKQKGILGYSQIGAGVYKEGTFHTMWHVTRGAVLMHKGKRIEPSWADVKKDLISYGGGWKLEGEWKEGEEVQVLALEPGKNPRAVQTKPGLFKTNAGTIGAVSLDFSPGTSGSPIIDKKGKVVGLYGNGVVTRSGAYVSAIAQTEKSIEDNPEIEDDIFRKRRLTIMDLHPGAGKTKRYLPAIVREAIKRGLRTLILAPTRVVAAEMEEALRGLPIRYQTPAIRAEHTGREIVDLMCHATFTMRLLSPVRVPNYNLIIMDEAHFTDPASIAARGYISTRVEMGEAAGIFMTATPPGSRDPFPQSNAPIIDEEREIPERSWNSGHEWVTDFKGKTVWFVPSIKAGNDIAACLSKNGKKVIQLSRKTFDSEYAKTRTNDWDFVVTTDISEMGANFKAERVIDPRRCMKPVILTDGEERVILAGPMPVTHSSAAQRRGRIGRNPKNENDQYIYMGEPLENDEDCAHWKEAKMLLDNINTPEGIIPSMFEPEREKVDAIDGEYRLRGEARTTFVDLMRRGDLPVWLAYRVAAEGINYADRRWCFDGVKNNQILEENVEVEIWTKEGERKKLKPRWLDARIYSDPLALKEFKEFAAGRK
# Format: functional, Thailand/16681/1984
pIC50: −log10 of the molar value.
MEASURE NAME: pIC50

{"MOL": "CCn1ccnc(N2CC[C@H](c3ccncc3)C2)c1=O", "MEAS VALUE": "< 4.00"}
{"MOL": "N#C[C@]1(Nc2ccc3c(c2)CNC3)C(=O)Nc2ccc(Cl)cc21", "MEAS VALUE": "< 4.00"}
{"MOL": "Cc1c(C(=O)NCc2ccnc(OC3CCOCC3)c2)cc(C2CC2)n1C", "MEAS VALUE": "< 4.00"}
{"MOL": "O=c1c2ccccc2nnn1CSc1nnc(-c2ccccc2)o1", "MEAS VALUE": "< 4.00"}
{"MOL": "O=C(Nc1cc(Cl)cc(C(=O)Nc2cccc([C@H]3CCCN3)c2)c1)OCc1ccccc1", "MEAS VALUE": 4.02}
{"MOL": "NCc1cccc(NC(=O)c2cc(NC(=O)OCc3ccccc3)cc(C(N)=O)c2)c1", "MEAS VALUE": "< 4.00"}
{"MOL": "NCCc1csc2cc(C(=O)Nc3ccc4c(c3)CNC4)ccc12", "MEAS VALUE": "< 4.00"}
{"MOL": "Clc1cc(CNc2ncc3c(n2)CNC3)c2cn[nH]c2c1", "MEAS VALUE": "< 4.00"}
{"MOL": "COCCNC(=O)[C@H](Nc1cccc([C@H]2CCOC2)c1)c1cc(Br)cc2[nH]ccc12", "MEAS VALUE": "< 4.00"}
{"MOL": "O=Cc1ccc(N2CCC(C(=O)N3CCN(CCc4ccccc4)CC3)CC2)cc1", "MEAS VALUE": 4.45}
{"MOL": "NCc1cc(Cl)cc(C(=O)Nc2ccc3c(c2)C(=O)OC3)c1", "MEAS VALUE": "< 4.00"}
{"MOL": "CCCn1nc(C)c2c(C(=O)Nc3cccc(CN)c3)cc(C)nc21", "MEAS VALUE": "< 4.00"}
{"MOL": "O=C1Cc2c(cc(F)cc2C(=O)Nc2ccc3c(c2)CNC3)N1", "MEAS VALUE": 4.48}
{"MOL": "Cc1[nH]c2c(C(=O)Nc3ccc4c(c3)CNC4)cccc2c1C", "MEAS VALUE": "< 4.00"}
{"MOL": "NCc1ccc(O)c(NC(=O)c2cc(Cl)cc(NC(=O)OCc3ccccc3)c2)c1", "MEAS VALUE": 4.13}
{"MOL": "COCc1cc(Cl)cc(C(=O)Nc2cccc(CN)c2)c1", "MEAS VALUE": "< 4.00"}
{"MOL": "O=C(O)c1cc2cc(-c3cc(Cl)c4[nH]c(=O)oc4c3)ccc2[nH]1", "MEAS VALUE": 4.33}
{"MOL": "O=C(Nc1ccc2c(c1)CNC2)c1ncnc2[nH]ccc12", "MEAS VALUE": "< 4.00"}
{"MOL": "Cc1c(C(=O)Nc2cc(C3CCOCC3)ccn2)cc(C2CC2)n1C", "MEAS VALUE": "< 4.00"}
{"MOL": "O=C(Nc1cc([C@H]2CCOC2)ccn1)c1cc(Cl)cc2[nH]ncc12", "MEAS VALUE": "< 4.00"}
{"MOL": "CCN1C[C@H]2C[C@@H]1CN2c1nc2ccccc2n(CC)c1=O", "MEAS VALUE": "< 4.00"}
{"MOL": "Cc1ncc(C(=O)Nc2cccc(CN)c2)cc1NC(=O)OCc1ccccc1", "MEAS VALUE": "< 4.00"}
